Test system: bovine microtubule-associated protein (MAP)-rich tubulin
Format: biochemical
setup conditions: 0.3 uM
metric name: Tubulin Polym. % inhibition at 0.3 uM (%)
Record the value in %, omitting the unit from your answer.

INSERT INTO results (cpd_smiles, metric_name, measured) VALUES
  ('CN[C@H](C(=O)N[C@H](C(=O)N(C)[C@H](/C=C(\C)C(=O)c1nccs1)C(C)C)C(C)(C)C)C(C)(C)c1ccccc1', 'Tubulin Polym. % inhibition at 0.3 uM', 33);

Now look at this entry.
[Q] Record `CO[C@H](C(=O)N[C@H](C(=O)N(C)[C@H](/C=C(\C)C(=O)O)C(C)C)C(C)(C)C)C(C)(C)c1ccccc1` : what is its Tubulin Polym. % inhibition at 0.3 uM with bovine microtubule-associated protein (MAP)-rich tubulin?
[A] 64

###

Test system: KM20
protocol description: Cell survival assay (SRB), KM20
Assay type: cell-based
setup conditions: KM20 cells
metric name: IC50 (nM)
Field format: number, assumed nM, no unit text.

[Q] Report IC50 for `CN[C@H](C(=O)N[C@H](C(=O)N(C)[C@H](/C=C(\C)C=O)C(C)C)C(C)(C)C)C(C)(C)c1ccccc1` tested on KM20.
[A] 4.6

###

Test system: bovine microtubule-associated protein (MAP)-rich tubulin
Format: biochemical
setup conditions: 0.3 uM
Protocol: Tubulin Polymerization Assays. For in vitro tubulin polymerization assays, bovine microtubule-associated protein (MAP)-rich tubulin, PEM buffer [80 mM Na-PIPES (pH 6.9), 1 mM MgCl2, and 1 mM EGTA], and GTP are purchased from Cytoskeleton (Denver, Colo.). […] After initiation of the reaction, absorbance at 340 nm is measured every minute for 60 min at 24° C. using a SpectraMax Plus plate reader (Molecular Devices, Sunnyvale, Calif.).
metric name: Tubulin Polym. % inhibition at 0.3 uM (%)
Field format: number, assumed %, no unit text.

INSERT INTO results (cpd_smiles, assayed_target, endpoint_unit, measured) VALUES
  ('CN[C@H](C(=O)N[C@H](C(=O)N(C)[C@H](/C=C/S(=O)(=O)O)C(C)C)C(C)(C)C)C(C)(C)c1ccccc1', 'bovine microtubule-associated protein (MAP)-rich tubulin', '%', 86),
  ('CCOS(=O)(=O)/C(C)=C/[C@H](C(C)C)N(C)C(=O)[C@@H](NC(=O)[C@@H](NC)C(C)(C)c1ccccc1)C(C)(C)C', 'bovine microtubule-associated protein (MAP)-rich tubulin', '%', 44),
  ('CN[C@@H](C(=O)N[C@H](C(=O)N(C)[C@H](/C=C(\C)C(=O)N1CCOCC1)C(C)C)C(C)(C)C)C(C)(C)c1ccc(C)c(C)c1', 'bovine microtubule-associated protein (MAP)-rich tubulin', '%', 61),
  ('CN[C@H](C(=O)N[C@H](C(=O)N(C)[C@H](/C=C(\C)C(=O)N(C)OC)C(C)C)C(C)(C)C)C(C)(C)c1ccccc1', 'bovine microtubule-associated protein (MAP)-rich tubulin', '%', 86),
  ('CN[C@H](C(=O)N[C@H](C(=O)N(C)[C@H](/C=C(\C)C(=O)N1CCC[C@H]1C(=O)OC)C(C)C)C(C)(C)C)C(C)(C)c1ccccc1', 'bovine microtubule-associated protein (MAP)-rich tubulin', '%', 82);

Continue with the molecule presented below.
[Q] Tubulin Polym. % inhibition at 0.3 uM for `CN[C@H](C(=O)N[C@H](C(=O)N(C)[C@H](/C=C(\C)C(=O)O)C(C)C)C(C)(C)C)c1ccccc1` ?
[A] 75
